Overview of reported Percent Effect across a group of molecules:
- targetOrSystem: AMP-activated protein kinase, AMPK (Homo sapiens) (UniProt P54646+O43741+P54619+Q9UGJ0+Q9Y478+Q13131+Q9UGI9)
- procedureSummary: AMP-dependent Kinase enzyme assay. An in vitro enzyme assay that detects ADP turnover that is directly proportional to AMPK activity. This uses naive AMPK that is activated during the assay with MK-8722
- Format: functional
- Set-up: scale not given: direction of the effect not stated beside the values
- measurementParameters: 30 µM
measuredParameter: Percent Effect (%)

> print(dat)
                                    molecule  measurement
 1  O=C([C@H]1C[C@@H]2CCN(C3CCOCC3)C[C@@H]2O1)N1CCOCC1        -5.76
 2  CCc1nc(C2CCCN2CC(=O)Nc2nncs2)no1 (stereo not drawn)        -3.54
 3       Cc1nc(N2CCCC2)nc2c1CCN(Cc1ccco1)CC2         8.01
 4     O=C(NCc1cc[nH]n1)N1CCN(c2ccccc2Cl)CC1        -1.65
 5  CN1C(=O)C(c2ccccc2)CC12CCN(CCOCCO)CC2 (stereo not drawn)        -6.48
 6  Cc1cc2c(=O)n3c(nc2s1)CCN(C(=O)c1ccncc1)CC3         20.6
 7  CN1CC2(COCCN(C(=O)c3ccco3)C2)OCC1=O (stereo not drawn)       -0.919
 8  COCCNC(=O)[C@H]1CN(Cc2scnc2C)C[C@H]2OCC[C@@H]12       0.0499
 9      O=C1COC2(CCN(Cc3ccccn3)CC2)CN1CC1CC1         17.2
10  CCc1nc(CN(C(C)=O)C2CCN(CCc3cnn(C)c3)C2)no1 (stereo not drawn)        -1.95
11  CC(c1nc(C2CC2)no1)N1CCN(c2ccc(C#N)cn2)CC1 (stereo not drawn)         8.14
12  CCC1CCCN(C(=O)Cc2csc(-c3ncccn3)n2)C1 (stereo not drawn)       0.0664
13  Cc1ccc(C(=O)N2CCCC(NC(=O)C(C)C)C2)c(O)c1 (stereo not drawn)        -12.8
14  CC(C)(C)n1cc(C(=O)N2CCCN(Cc3cccs3)CC2)cn1         3.41
15         Cn1cnc2c(N3CCCC3)nc(C3CCNCC3)cc21        -2.65
16  CC(C)C1CN(C(=O)c2nccnc2N)CCS1 (stereo not drawn)        -7.56
17     CC(=O)c1cn(CCC(=O)NCCC(=O)O)c2ccccc12         1.48
18  COCC(=O)NCc1cc(=O)n2c(n1)CN(Cc1ccsc1)CCC2         3.64
19     NC(=O)C1CCN(Cn2nc(-c3ccccc3)oc2=O)CC1         6.06
20  O=C1CC(NCc2ccncc2)CN1Cc1cccc(F)c1 (stereo not drawn)       -0.958
21  Cc1nc(C)n(CC2CCCN2Cc2nc(-c3cccs3)no2)n1 (stereo not drawn)         1.44
22  Cc1cccc(-n2cc(C(=O)N3CCCC(n4ccnc4)C3)nn2)c1 (stereo not drawn)          7.1
23  Cc1ccc(NC(=O)N2CCOC(C)C2)cc1Cl (stereo not drawn)        -5.38
24  O=C(Nc1cccnc1)[C@H]1C[C@@H]2CCN(c3nncs3)C[C@H]2O1        -5.74
25  Cc1cnn(CC2CN(c3ncnc4ccccc34)CCO2)c1 (stereo not drawn)         1.23
26  CC(=O)N1CCCC1c1ccc(-c2c(C)noc2C)cn1 (stereo not drawn)         8.36
27             CCOC(=O)c1sc2ccsc2c1CNC(=O)CC        -8.58
28    O=C(c1cccc2cccnc12)N1CCCN(c2cccnn2)CC1        -4.23
29  COCCN1CCN(CCCS(C)(=O)=O)CC1C (stereo not drawn)        -8.32
30  Cc1nccn1C1CCCN(C(=O)c2ccc(N(C)C)nc2)C1 (stereo not drawn)        -3.59
31           CCc1ncnc2c1CCN(C(=O)N1CCCC1)CC2         4.79
32  CN(C(=O)C1CCCCC1)[C@@H]1CCC[C@@H](N2CCOCC2)[C@@H]1O       0.0373
33  CN(C)C(=O)[C@@H]1CCO[C@@H]2CCN(Cc3ccccc3)C[C@@H]21       -0.272
34  Cc1ccc(N2CCCC(N(C)Cc3cc(C)no3)C2)nn1 (stereo not drawn)         -6.3
35  CC(=O)N(Cc1ncc(C(C)C)o1)C1CCN(Cc2nccn2C)C1 (stereo not drawn)        -4.73
36  COc1cc(NC(=O)c2ccccc2F)c(C(=O)N(C)C)cc1OC        0.986
37  CN(C)[C@@H]1CCN(C(=O)c2ccsc2)[C@H]1Cc1cnn(C)c1         12.6
38  CCOCC(=O)N1C[C@@H](NC(C)=O)[C@H](c2ccc(OC)cc2)C1        -8.83
39  CCCN1CCC(N(Cc2ncc(C)o2)C(C)=O)C1 (stereo not drawn)        -14.9
40  O=C(CC1CN(Cc2ccccc2)CCO1)Nc1ccccc1F (stereo not drawn)        -4.08
41  CC(NC(=O)Cn1cccn1)c1ccc2c(c1)OCCCO2 (stereo not drawn)         20.8
42  CC(C)NC(=O)c1ccc2c(c1)nc1n2CCN(c2ccccc2)C1         16.6
43           CCN(C(=O)CCCOc1ccccc1F)c1ccncc1        -2.56
44              c1cc(CN2CCN(Cc3cscn3)CC2)cs1         3.68
45  O=C(NCCN1CCCCC1)c1nc(-c2ccc3cc[nH]c3c2)no1        -7.25
46  Cc1cc2nc(SCC(=O)N3CCOCC3)n(CC(C)C)c(=O)c2[nH]1         2.03
47  CC(NCc1cccnc1)c1ccc(OCC(=O)NC2CC2)cc1 (stereo not drawn)         10.2
48   Cn1cc(CN2CCC3(CCCN(Cc4ccccn4)C3)CC2)cn1       -0.391

These entries and their values trace back to ChEMBL document CHEMBL3988442.
